measurement-description: Phase 1 oral iron interaction study, Cohort 1 (after meal): sodium ferrous citrate, ferric citrate hydrate
Assay type: in vivo, human
setup-conditions: male, human, plasma, oral, 150 mg with ferric citrate hydrate (2000 mg ferric citrate), read-out: t1/2, LS geometric mean (converted)

| chemical-structure | half-life (h) |
| --- | --- |
| O=C(O)CNC(=O)c1ncc(-c2cccc(Cl)c2)cc1O | 4.26 |

* * *

measurement-description: Plasma protein binding, equilibrium dialysis
Type: in vitro ADME
setup-conditions: human, in vitro, read-out: human plasma protein binding rate
measure-name: fraction unbound

| molecule | measure-name | reading |
| --- | --- | --- |
| O=C(O)CNC(=O)c1ncc(-c2cccc(Cl)c2)cc1O [Compound 1] | fraction unbound | < 0.01 |
